B1: TPR t1 (parent)
chain: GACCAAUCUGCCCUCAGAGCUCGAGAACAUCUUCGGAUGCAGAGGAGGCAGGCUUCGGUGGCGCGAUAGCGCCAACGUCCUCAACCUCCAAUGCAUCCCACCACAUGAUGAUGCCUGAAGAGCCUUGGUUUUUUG

- Variants of: B1
- assay-text: polymerase ribozyme fitness, log enrichment relative to wild type (log ratio); higher = more active; in vitro selection for triplet polymerase activity
Mark rule met for reported polymerase ribozyme fitness (log ratio) of -3 or greater; mark rule not met for anything smaller.

These recorded examples may help you get a feel for the data.
{"columns": ["mutation-notation", "answer-label"],
 "data": [
  ["G42C G77U", "rule met"],
  ["A16U C20A C56A", "rule not met"],
  ["C12A A24G A41U G71C C88U A90G C123G", "rule not met"],
  ["C34A A83G A100U", "rule not met"],
  ["U7G G51U G60U A111C", "rule met"]
]}

Entry G36U C56U C104A : is its polymerase ribozyme fitness (log ratio) no less than -3?
rule met

Reported polymerase ribozyme fitness (log ratio) at or above -3? U81A C102A
rule not met

Item C11A C22U with polymerase ribozyme fitness (log ratio) of -3 or above?
rule not met

Given the entry C64U C101G , answer whether its polymerase ribozyme fitness (log ratio) meets or surpasses -3.
rule met

Check this variant for polymerase ribozyme fitness (log ratio) at or above -3: G42C A91G U112A
rule met

Could you verify whether the entry C12A C49A C88A G110U shows polymerase ribozyme fitness (log ratio) of no less than -3?
rule met

Check this variant for polymerase ribozyme fitness (log ratio) at or above -3: G113A C123U
rule met
